Sourced from patent US12129265B2

- Tested on: L363 cells
- Measurement Protocol: CellTiter-Glo in vitro cell proliferation assay, Example 8
- Assay type: cell-based, Human
- Assay Context: L363, PCL/MM; read-out: Mean IC50
Observed Property: IC50 (µM)
Give just the numeric value; µM need not be written.

// worked examples, IC50 included
| Mol Smiles | Obs Value |
| --- | --- |
| COc1cccc(C(CC2=NCCc3c2[nH]c2cc(OC)ccc32)CC2=NCCc3c2[nH]c2cc(OC)ccc32)c1 | 6.58 |
| COc1ccc2c3c([nH]c2c1)C(CC(CC1=NCCc2c1[nH]c1cc(OC)ccc21)c1cc(F)c(F)cc1F)=NCC3 | 4.72 |
| COc1ccc(C(CC2=NCCc3c2[nH]c2cc(OC)ccc32)CC2=NCCc3c2[nH]c2cc(OC)ccc32)c(O)c1 | 12.6 |
| COc1ccc2c3c([nH]c2c1)C(CC(CC1=NCCc2c1[nH]c1cc(OC)ccc21)c1cc(Br)c(O)c(OC)c1)=NCC3 | 10.9 |
| COc1ccc2c3c([nH]c2c1)C(CC(CC1=NCCc2c1[nH]c1cc(OC)ccc21)c1ccc(OC(C)=O)c(OC)c1)=NCC3 | 16.3 |
| COc1ccc2c3c([nH]c2c1)C(CC(CC1=NCCc2c1[nH]c1cc(OC)ccc21)c1cc(Cl)c(O)c(OC)c1)=NCC3 | 19.7 |
| COc1ccc2c3c([nH]c2c1)C(CC(CC1=NCCc2c1[nH]c1cc(OC)ccc21)c1ccc(OC)c(Oc2ccccc2)c1)=NCC3 | 35.6 |
| COc1ccc2c3c([nH]c2c1)C(CC(CC1=NCCc2c1[nH]c1cc(OC)ccc21)C1CCCCC1)=NCC3 | 5.57 |

Task: Field request: IC50 | item: COc1ccc2c3c([nH]c2c1)C(CC(CC1=NCCc2c1[nH]c1cc(OC)ccc21)c1ccc(Cl)cc1)=NCC3
Output: 7.83

Task: And what about the compound COc1ccc2c3c([nH]c2c1)C(CC(CC1=NCCc2c1[nH]c1cc(OC)ccc21)c1ccc(OC)c(O)c1I)=NCC3 ?
Output: 23.4

====

- Tested on: A498 cells
- Measurement Protocol: CellTiter-Glo in vitro cell proliferation assay, Example 8
- Type: cell-based, Human
- Assay Context: A498, RCC; read-out: Mean IC50
Observed Property: pIC50
Hey, just a heads up that pIC50 is the negative log base 10 of the concentration in molar.

Examples with their reported pIC50 follow.
| Mol Smiles | Observed Property | Obs Value |
| --- | --- | --- |
| COc1ccc2c3c([nH]c2c1)C(CC(CC1=NCCc2c1[nH]c1cc(OC)ccc21)c1cc(O)c(OC)c(OC)c1)=NCC3 | pIC50 | 4.29 |
| COc1ccc2c3c([nH]c2c1)C(CC(CC1=NCCc2c1[nH]c1cc(OC)ccc21)c1ccc(OC)c(O)c1Br)=NCC3 | pIC50 | 4.04 |

Task: Consider the compound COc1ccc2c3c([nH]c2c1)C(CC(CC1=NCCc2c1[nH]c1cc(OC)ccc21)c1ccc(OC)c(OC)c1)=NCC3 and give its measured pIC50.
Output: 4.90

Task: COc1ccc2c3c([nH]c2c1)C(CC(CC1=NCCc2c1[nH]c1cc(OC)ccc21)c1cccc(F)c1)=NCC3 , same question.
Output: 4.95

Task: Please give the result for COc1ccc2c3c([nH]c2c1)C(CC(CC1=NCCc2c1[nH]c1cc(OC)ccc21)c1ccc(F)c(Oc2ccccc2)c1)=NCC3 too.
Output: 4.05

====

- Tested on: FaDu cells
- Measurement Protocol: CellTiter-Glo in vitro cell proliferation assay, Example 8
- Format: cell-based, Human
- Assay Context: H&N - SC, read-out: Mean IC50
Observed Property: pIC50
Please report pIC50 as the negative decimal logarithm of the molar concentration, giving only the number.

Task: Report pIC50 for COc1ccc2c3c([nH]c2c1)C(CC(CC1=NCCc2c1[nH]c1cc(OC)ccc21)c1ccc(OC)c(Oc2ccccc2)c1)=NCC3 tested on FaDu cells.
Output: 4.30

====

- Test system: BxPC-3 cells
- Measurement Protocol: CellTiter-Glo in vitro cell proliferation assay, Example 8
- Type: cell-based, Human
- Assay Context: Homo sapiens; BxPC-3, Pancreatic; read-out: Mean IC50
Observed Property: IC50 (µM)
Provide only the numeric value, understood in µM.

Task: // returns reported IC50 for input COc1ccc2c3c([nH]c2c1)C(CC(CC1=NCCc2c1[nH]c1cc(OC)ccc21)c1c(F)c(F)c(F)c(F)c1F)=NCC3
Output: 10.8

====

- Test system: KMM-1 cells
- Measurement Protocol: CellTiter-Glo in vitro cell proliferation assay, Example 8
- Type: cell-based, Human
- Assay Context: KMM-1, HMCL-A; read-out: Mean IC50
pIC50: −log10 of the molar value.
Response key: True means pIC50 >= 5; False means pIC50 < 5.

Task: Threshold query (pIC50 >= 5) on COc1ccc2c3c([nH]c2c1)C(CC(CC1=NCCc2c1[nH]c1cc(OC)ccc21)c1ccc(OC)c(OC)c1)=NCC3
Output: True

Task: Next record, please: COc1ccc2c3c([nH]c2c1)C(CC(CC1=NCCc2c1[nH]c1cc(OC)ccc21)c1ccc(OC)c(O)c1)=NCC3
Output: False

Task: And what about the compound COc1ccc2c3c([nH]c2c1)C(CC(CC1=NCCc2c1[nH]c1cc(OC)ccc21)c1ccc(OC(C)=O)c(OC)c1)=NCC3 ?
Output: False

Task: Now try COc1ccc2c3c([nH]c2c1)C(CC(CC1=NCCc2c1[nH]c1cc(OC)ccc21)c1cc(Cl)c(O)c(OC)c1)=NCC3 .
Output: False

Task: Field entry: COc1ccc2c3c([nH]c2c1)C(CC(CC1=NCCc2c1[nH]c1cc(OC)ccc21)c1cc(OC)c(O)c([N+](=O)[O-])c1)=NCC3
Output: False

Task: Another: COc1ccc2c3c([nH]c2c1)C(CC(CC1=NCCc2c1[nH]c1cc(OC)ccc21)c1cc(F)c(F)cc1F)=NCC3
Output: True

Task: Subsequent entry: COc1ccc2c3c([nH]c2c1)C(CC(CC1=NCCc2c1[nH]c1cc(OC)ccc21)c1ccc(OC)c(O)c1I)=NCC3
Output: False

Task: Same question for COc1ccc2c3c([nH]c2c1)C(CC(CC1=NCCc2c1[nH]c1cc(OC)ccc21)C1CCCCC1)=NCC3 please.
Output: True

====

- Tested on: A498 cells
- Measurement Protocol: CellTiter-Glo in vitro cell proliferation assay, Example 8
- Assay type: cell-based, Human
- Assay Context: A498, RCC; read-out: Mean IC50
Each entry below carries its reported IC50.
// note: answer is a bare numeric in µM

Recorded IC50, per entry:
| Mol Smiles | Measurement Target | IC50, µM |
| --- | --- | --- |
| COc1ccc2c3c([nH]c2c1)C(CC(CC1=NCCc2c1[nH]c1cc(OC)ccc21)c1ccc(OC)c(O)c1)=NCC3 | A498 cells | 29.3 |
| COc1ccc2c3c([nH]c2c1)C(CC(CC1=NCCc2c1[nH]c1cc(OC)ccc21)c1ccc(F)cc1)=NCC3 | A498 cells | 11.7 |

For the next question, use this compound.
Task: Entry under review: COc1ccc2c3c([nH]c2c1)C(CC(CC1=NCCc2c1[nH]c1cc(OC)ccc21)c1cc(OC)c(O)c([N+](=O)[O-])c1)=NCC3 . Reported IC50?
Output: 22.8

====

- Test system: FaDu cells
- Measurement Protocol: CellTiter-Glo in vitro cell proliferation assay, Example 8
- Type: cell-based, Human
- Assay Context: H&N - SC, read-out: Mean IC50
Observed Property: pIC50
By convention, pIC50 is the negative base-10 log of a molar concentration.

Guide cases for pIC50, answers given:
| Compound | Obs Value |
| --- | --- |
| C=C(C)C1CC=C(C(CC2=NCCc3c2[nH]c2cc(OC)ccc32)CC2=NCCc3c2[nH]c2cc(OC)ccc32)CC1 (stereo not shown) [compound 28] | 5.25 |
| COc1ccc(C(CC2=NCCc3c2[nH]c2cc(OC)ccc32)CC2=NCCc3c2[nH]c2cc(OC)ccc32)c(O)c1 [compound 8] | 4.79 |
| COc1ccc2c3c([nH]c2c1)C(CC(CC1=NCCc2c1[nH]c1cc(OC)ccc21)c1cc(F)cc(F)c1)=NCC3 [compound 22] | 4.96 |
| COc1ccc2c3c([nH]c2c1)C(CC(CC1=NCCc2c1[nH]c1cc(OC)ccc21)c1cc(Cl)c(O)c(OC)c1)=NCC3 [compound 9] | 4.14 |
| COc1ccc2c3c([nH]c2c1)C(CC(CC1=NCCc2c1[nH]c1cc(OC)ccc21)C1CCCCC1)=NCC3 [compound 30] | 5.17 |

Task: Which measured pIC50 value corresponds to COc1ccc2c3c([nH]c2c1)C(CC(CC1=NCCc2c1[nH]c1cc(OC)ccc21)c1ccc(OC)c(O)c1Br)=NCC3 [compound 13] ?
Output: 4.87

Task: Field entry: COc1ccc2c3c([nH]c2c1)C(CC(CC1=NCCc2c1[nH]c1cc(OC)ccc21)c1ccc(OC)c(O)c1)=NCC3 [compound 7]
Output: 4.86
